- test-name: yeast display, Sf9 membrane polyspecificity reagent, FACS + sequencing; frameworks hold sequencing errors
measured-parameter: polyreactivity (PSR sort gate)

Worked cases, answers included:
[
  {
    "macromolecule-sequence": "QVQLVESGGGLVQAGGSLRLSCAASGRTFGPYAMGWYRQAPGKDSDLVATISWNGGSTYYADSVKGRFTISRDYAKNSVYLQMNSLKPEDTAVYYCAARHWSQSWKYGYWGQGTQVTVSS",
    "measured-parameter": "polyreactivity (PSR sort gate)",
    "result-value": "high polyreactivity"
  },
  {
    "macromolecule-sequence": "QVQLVESGGGLVQAGGSLLLSCAASGGTIRYYAMGWSRQSPGKERELVAAISRGGTNTYYADSVKGRFTISRDNAKNTVYLQRNSLKPDDTAVYYCSAKRYSRYNYWGQGTQVTVSS",
    "measured-parameter": "polyreactivity (PSR sort gate)",
    "result-value": "high polyreactivity"
  },
  {
    "macromolecule-sequence": "QVQLVESGGGLVQAGGSLRLSCAASGSIFISYAMGWYRQAPGKERELVAAISSGGSTNYADSVKGRFTISRDNAKNTVYLQMNSLIPEDTAVYYCAAASAAGYDYWGQGTQVTVSS",
    "measured-parameter": "polyreactivity (PSR sort gate)",
    "result-value": "low polyreactivity"
  },
  {
    "macromolecule-sequence": "QVQLQECGGGLVQAGRSLRLSCAASGTFSNSVKWLYCQAPGKEREFVATIGVGGSTNYADSVKGRFTISRDNAKYTVYLQMNSLKPEDTGVYHCAGYGAASNFHYDRGQGTQVTVSS",
    "measured-parameter": "polyreactivity (PSR sort gate)",
    "result-value": "low polyreactivity"
  },
  {
    "macromolecule-sequence": "QVQLVESGGGLVQAGGSLRLSCAASGSTFWYYGMGWYRQAPGKERELVARINWSTGRTYYADSVKGRFTISRDNAKNTVYLQMNSLKPEDTAVYYCNALNPYKGQEAHYDYWGQGTQVTVSS",
    "measured-parameter": "polyreactivity (PSR sort gate)",
    "result-value": "high polyreactivity"
  },
  {
    "macromolecule-sequence": "QVQLEESGGGLVQAGGSLSLTCAASGRTFFTYAMGWYRQAPGKERELVAAIRWTGGRTTYADSVKARFSISRDNAKNTVYLQMISLKPEDTAVYYCAARVGRTYASYSTGNYYWGQGTQVTVSS",
    "measured-parameter": "polyreactivity (PSR sort gate)",
    "result-value": "high polyreactivity"
  },
  {
    "macromolecule-sequence": "QVQLVESGGGLVQAGGSLSLSCAASGSTFNHYAMGWYSPAPGKERELVAAISSRGGSTHYADSVKGRFTISRDNAKNTVYLQMNSLKPEDTAVYDCARDTDPQSSRSSDYDYWGQGTQVTVSS",
    "measured-parameter": "polyreactivity (PSR sort gate)",
    "result-value": "low polyreactivity"
  },
  {
    "macromolecule-sequence": "QVQLVESGGGLVQAGGSLRLSCAPSGRIFQYYTMGWSRQAPGKDRELVATISRRGGRTYYADSVKGRFTISRDNAKNTVYLQKNSLKPEDTAVYYCAARTYSYEYDYWGQGTQVTVSS",
    "measured-parameter": "polyreactivity (PSR sort gate)",
    "result-value": "high polyreactivity"
  }
]

Task item: Look up polyreactivity (PSR sort gate): QVQLVESGGGLVQAGGSLRLSCAASVSTFSYNYMGWYRQAPRKERELDAAISSGGSTKYADSVKGRFRISRDNAKNTVYLQMNSLKPEDTAVYYCIKDYPQNPLPASSYYLYDYWGQGTQVTVSS
Reply: high polyreactivity

Task item: One more sequence: QVQIVESGGGLVQAGGSLRFSCAASGRTFWLNDMGWYRHAPGKERELVARISRRGGSTYYAHSVKGRFTISRDHAKNTVYLQIISLKPEDTAVYYCAAAIVTRSYKYDYWGQGTQVTVSS
Reply: high polyreactivity

Task item: Now the same for QVQLVESGGGLVQAGGSLRLSCAASGGIFIYNAMGWYRQAPGKEREFVAAINISGGNTYYADSVKGRFTISRDNAKNTVYLQMNSLKPEDTAVYYCAKSGRYGFWGQGTQVTVSS
Reply: high polyreactivity
